system: Nav 1.7 (Homo sapiens)
Construct: expressed in transfected cells
assay details: Whole-cell voltage clamp electrophysiology, automated patch clamp (marker c in Table of Examples)
Assay type: cell-based
assay setup: marker c: Automated patch clamp data; read-out: Nav 1.7 activity
Mark 1 (yes) only when IC50 stays strictly below 1000 nM. Values equal to the cut-off are 0 (no).

In [3]: df
Out[3]:
                                    compound  class_assignment
 0  Cc1cc(-c2nc(-c3nc(N)nc(N(C)c4ccccc4)n3)no2)oc1C            0 (no)
 1  CN(c1ccccc1)c1nc(N)nc(-c2noc(C3CCOCC3)n2)n1            0 (no)
 2  Cc1cccc(N(C)c2nc(N)nc(-c3noc(-c4cccs4)n3)n2)c1           1 (yes)
 3  Nc1nc(Nc2cccc(F)c2F)nc(-c2noc(-c3ccc(OCC4CC4)nc3)n2)n1           1 (yes)
 4  CN(c1ccccc1)c1nc(N)nc(-c2noc(-c3ccc(C(F)(F)F)nc3Cl)n2)n1            0 (no)
 5  CN(c1ccccc1)c1nc(N)nc(-c2noc(-c3cc4ccccc4o3)n2)n1            0 (no)
 6  CN(c1ccccc1)c1nc(N)nc(-c2noc(-c3ccc(C#N)nc3)n2)n1            0 (no)
 7  CN(c1ccccc1)c1nc(N)nc(-c2noc(-c3cccnc3N)n2)n1           1 (yes)
 8  Cc1cccnc1-c1nc(-c2nc(N)nc(N(C)c3ccccc3)n2)no1            0 (no)
 9  CN(c1ccccc1)c1nc(N)nc(-c2noc(-c3ncco3)n2)n1            0 (no)
10  CC(C)SCC1CCN(c2nc(-c3nc(N)nc(N(C)c4ccccc4)n3)no2)CC1           1 (yes)
11  CN(c1cccc(F)c1)c1nc(N)nc(-c2noc(-c3cccs3)n2)n1            0 (no)
12  CN(c1ccccc1)c1nc(N)nc(-c2noc(-c3ccncc3)n2)n1           1 (yes)
13  CCN(c1ccccc1)c1nc(N)nc(-c2noc(-c3ccccc3OC(F)(F)F)n2)n1           1 (yes)
14  CCOC(=O)c1nc(-c2nc(N)nc(N(C)c3ccccc3)n2)no1            0 (no)
15  CC(C)C(=O)N1CCC(c2nc(-c3nc(N)nc(N(C)c4ccccc4)n3)no2)CC1            0 (no)
16  CCN(c1ccccc1)c1nc(N)nc(-c2noc(-c3ccc(OCC(F)(F)F)nc3)n2)n1           1 (yes)
17  CN(c1ccccc1)c1nc(N)nc(-c2noc(-c3cccc(F)c3)n2)n1           1 (yes)
18  CCN(c1ccccc1)c1nc(N)nc(-c2noc(-c3cccs3)n2)n1           1 (yes)
19  Nc1nc(-c2noc(-c3ccco3)n2)nc(N(CC2CC2)c2ccccc2)n1           1 (yes)
20  CS(=O)(=O)c1cccc(Nc2nc(N)nc(-c3noc(-c4ccc(OCC(F)(F)F)nc4)n3)n2)c1           1 (yes)
21  COC(=O)c1cccc(Nc2nc(N)nc(-c3noc(-c4ccc(OCC(F)(F)F)nc4)n3)n2)c1            0 (no)
22  CN(c1ccccc1)c1nc(N)nc(-c2noc(-c3ccc(OCC4CC4)nc3)n2)n1           1 (yes)
23  CN(c1ccccc1)c1nc(N)nc(-c2noc(N3CCOCC3)n2)n1            0 (no)
24  CN(c1nc(N)nc(-c2noc(-c3ccc(OCC4CC4)nc3)n2)n1)c1cccc(F)c1F           1 (yes)
25  CN(c1ccccc1)c1nc(N)nc(-c2noc(C3CCCO3)n2)n1 (stereo not shown)            0 (no)
26  Cc1ccc(-c2nc(-c3nc(N)nc(N(C)c4cccc(Cl)c4)n3)no2)o1           1 (yes)
27  CN(c1cccc(Cl)c1)c1nc(N)nc(-c2noc(-c3ccccc3Cl)n2)n1           1 (yes)
28  CN(c1ccccc1)c1nc(N)nc(-c2noc(N3CCC(CSCC(F)(F)F)CC3)n2)n1           1 (yes)
29  COc1cccc(-c2nc(-c3nc(N)nc(N(C)c4ccccc4F)n3)no2)c1           1 (yes)
30  CCOc1ccccc1-c1nc(-c2nc(N)nc(N(CC)c3ccccc3)n2)no1           1 (yes)
31  COc1ccc(-c2nc(-c3nc(N)nc(N(C)c4ccccc4)n3)no2)c(OC)c1           1 (yes)

====

system: Nav 1.7 (Homo sapiens)
Construct: expressed in transfected cells
assay details: Whole-cell voltage clamp electrophysiology, automated patch clamp (marker c in Table of Examples)
Type: cell-based
assay setup: marker c = Automated patch clamp data; read-out: Nav 1.7 activity
pIC50: −log10 of the molar value.
pIC50 vs 6: at or above is met, below is not met.

>>> df
                           structure_string                  system  class_assignment
0  Nc1nc(Nc2ccccc2)nc(-c2noc(C(=O)NC3Cc4ccccc4C3)n2)n1  Nav 1.7 (Homo sapiens)           not met
1  CN(c1ccccc1)c1nc(N)nc(-c2noc(N3CC[C@H](Oc4ccccc4)C3)n2)n1  Nav 1.7 (Homo sapiens)               met
2  COC(=O)c1ccc(-c2nc(-c3nc(N)nc(Nc4ccccc4)n3)no2)cn1  Nav 1.7 (Homo sapiens)               met
3  CN(c1ccccc1)c1nc(N)nc(-c2noc(-c3ncccc3COCC(F)(F)F)n2)n1  Nav 1.7 (Homo sapiens)               met
4  CN(c1cccc(F)c1)c1nc(N)nc(-c2noc(-c3ccc(OCC(F)(F)F)nc3)n2)n1  Nav 1.7 (Homo sapiens)               met
5  CN(c1ccccc1)c1nc(N)nc(-c2noc(-c3cccnc3C(=O)NC3CC3)n2)n1  Nav 1.7 (Homo sapiens)           not met
6  CN(c1ccccc1)c1nc(N)nc(-c2noc(N3CCN(S(=O)(=O)CC(F)(F)F)CC3)n2)n1  Nav 1.7 (Homo sapiens)           not met

====

system: Nav 1.7 (Homo sapiens)
Construct: expressed in transfected cells
assay details: Whole-cell voltage clamp electrophysiology, automated patch clamp (marker c in Table of Examples)
Format: cell-based
assay setup: marker c = Automated patch clamp data; read-out: Nav 1.7 activity
Attribute: IC50
reported endpoint: IC50 (nM)

                                   compound  reported_endpoint  uom  measured
0  CN(c1ccccc1)c1nc(N)nc(-c2noc(-c3ccc(SCC4CC4)nc3)n2)n1 [Example 452]               IC50   nM        61
1  Nc1nc(Nc2ccccc2)nc(-c2noc(N3CCC4(CC3)COC4)n2)n1 [Example 246]               IC50   nM      9360
2  CN(c1ccccc1)c1nc(N)nc(-c2noc(-c3ccc(COCC4CC4)nc3)n2)n1 [Example 208]               IC50   nM       113
3  CN(c1ccccc1)c1nc(N)nc(-c2noc(-c3ncccc3C(=O)NCC3CC3)n2)n1 [Example 369]               IC50   nM      1320
4  Nc1nc(Nc2ccccc2)nc(-c2noc(N3C[C@@H]4[C@@H](COCCC(F)(F)F)[C@@H]4C3)n2)n1 [Example 394]               IC50   nM       664
5  NC(=O)c1nc(-c2nc(N)nc(Nc3ccccc3)n2)no1 [Example 222]               IC50   nM      7710
6  CN(c1ccccc1)c1nc(N)nc(-c2noc(N3CCN(S(=O)(=O)N(C)C)CC3)n2)n1 [Example 388]               IC50   nM      2810
7  CN(c1ccccc1)c1nc(N)nc(-c2noc([C@H]3CCCN3C(=O)CC3CC3)n2)n1 [Example 449]               IC50   nM      2570

====

Here the recorded IC50 is given for each entry.
system: Nav 1.7 (Homo sapiens, UniProt Q15858)
Construct: expressed in transfected cells
Sequence (Q15858 whole entry): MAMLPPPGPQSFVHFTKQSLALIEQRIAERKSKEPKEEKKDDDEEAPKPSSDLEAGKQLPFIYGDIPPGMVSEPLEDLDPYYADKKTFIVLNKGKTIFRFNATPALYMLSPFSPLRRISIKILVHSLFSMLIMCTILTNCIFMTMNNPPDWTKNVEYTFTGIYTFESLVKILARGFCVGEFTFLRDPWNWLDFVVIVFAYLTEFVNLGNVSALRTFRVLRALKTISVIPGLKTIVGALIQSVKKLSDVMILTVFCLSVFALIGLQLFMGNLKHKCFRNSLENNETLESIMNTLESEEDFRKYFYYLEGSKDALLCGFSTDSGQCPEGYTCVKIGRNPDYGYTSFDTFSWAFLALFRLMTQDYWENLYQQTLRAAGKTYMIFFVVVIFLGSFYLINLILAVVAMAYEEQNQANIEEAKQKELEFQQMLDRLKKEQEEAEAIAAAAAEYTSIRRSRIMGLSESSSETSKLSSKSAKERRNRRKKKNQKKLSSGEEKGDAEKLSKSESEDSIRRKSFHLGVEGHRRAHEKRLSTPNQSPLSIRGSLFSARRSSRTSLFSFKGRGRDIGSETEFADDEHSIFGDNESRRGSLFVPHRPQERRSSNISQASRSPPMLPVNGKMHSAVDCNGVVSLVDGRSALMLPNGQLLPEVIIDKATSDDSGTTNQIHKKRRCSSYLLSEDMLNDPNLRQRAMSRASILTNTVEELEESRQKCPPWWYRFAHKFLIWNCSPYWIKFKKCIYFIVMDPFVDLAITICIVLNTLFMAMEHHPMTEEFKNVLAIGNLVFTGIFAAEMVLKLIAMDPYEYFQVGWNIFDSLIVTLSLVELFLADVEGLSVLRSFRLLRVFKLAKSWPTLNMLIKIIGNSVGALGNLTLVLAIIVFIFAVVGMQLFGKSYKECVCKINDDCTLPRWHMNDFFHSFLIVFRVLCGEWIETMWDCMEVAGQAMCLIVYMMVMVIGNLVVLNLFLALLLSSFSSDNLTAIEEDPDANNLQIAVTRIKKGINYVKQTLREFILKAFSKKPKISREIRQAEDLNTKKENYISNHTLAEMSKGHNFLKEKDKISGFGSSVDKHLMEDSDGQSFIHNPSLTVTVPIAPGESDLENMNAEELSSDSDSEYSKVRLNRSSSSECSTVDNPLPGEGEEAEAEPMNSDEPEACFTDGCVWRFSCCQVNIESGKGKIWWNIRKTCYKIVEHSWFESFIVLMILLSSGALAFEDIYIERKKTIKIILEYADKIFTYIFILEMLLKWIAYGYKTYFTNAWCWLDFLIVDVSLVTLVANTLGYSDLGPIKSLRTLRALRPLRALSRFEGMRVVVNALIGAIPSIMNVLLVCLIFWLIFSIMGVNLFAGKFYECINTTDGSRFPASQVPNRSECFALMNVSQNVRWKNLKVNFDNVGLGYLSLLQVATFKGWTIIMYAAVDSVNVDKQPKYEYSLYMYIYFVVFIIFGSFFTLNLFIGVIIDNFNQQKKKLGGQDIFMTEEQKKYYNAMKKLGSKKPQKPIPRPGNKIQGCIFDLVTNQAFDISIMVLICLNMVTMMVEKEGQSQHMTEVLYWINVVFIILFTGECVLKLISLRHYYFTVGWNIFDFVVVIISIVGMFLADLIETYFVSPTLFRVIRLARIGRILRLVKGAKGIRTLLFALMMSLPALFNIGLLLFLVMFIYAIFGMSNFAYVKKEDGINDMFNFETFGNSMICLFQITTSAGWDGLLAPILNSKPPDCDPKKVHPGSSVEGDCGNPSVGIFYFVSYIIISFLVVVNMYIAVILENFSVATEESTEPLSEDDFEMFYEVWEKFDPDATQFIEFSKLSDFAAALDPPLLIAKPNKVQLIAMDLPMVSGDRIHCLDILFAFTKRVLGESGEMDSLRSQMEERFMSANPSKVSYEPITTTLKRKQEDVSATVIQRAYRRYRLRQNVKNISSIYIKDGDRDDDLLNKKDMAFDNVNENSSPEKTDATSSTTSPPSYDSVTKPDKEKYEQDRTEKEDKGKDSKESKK
assay details: Whole-cell voltage clamp electrophysiology, automated patch clamp (marker c in Table of Examples)
Type: cell-based
assay setup: marker c: Automated patch clamp data; read-out: Nav 1.7 activity
reported endpoint: IC50 (nM)

                                   compound  reported_endpoint  uom  measured
0  CCS(=O)(=O)N1CCC(c2nc(-c3nc(N)nc(N(C)c4ccccc4)n3)no2)CC1 [Example 170]               IC50   nM      1880
1  Nc1nc(Nc2ccccc2F)nc(-c2noc(-c3ccc(OCC4CC4)nc3)n2)n1 [Example 138]               IC50   nM       106
2  Nc1nc(Nc2ccccc2)nc(-c2noc(N3CCC(COCC(F)(F)F)CC3)n2)n1 [Example 174]               IC50   nM       340
3  Nc1nc(Nc2cc(F)ccc2F)nc(-c2noc(-c3ccco3)n2)n1 [Example 109]               IC50   nM       369
